# Lookup of reported z-score keyed by entry
ASSAYED_SYSTEM: NADPH oxidase 2 (Homo sapiens) (UniProt P04839)
Sequence (P04839 whole entry, looked up): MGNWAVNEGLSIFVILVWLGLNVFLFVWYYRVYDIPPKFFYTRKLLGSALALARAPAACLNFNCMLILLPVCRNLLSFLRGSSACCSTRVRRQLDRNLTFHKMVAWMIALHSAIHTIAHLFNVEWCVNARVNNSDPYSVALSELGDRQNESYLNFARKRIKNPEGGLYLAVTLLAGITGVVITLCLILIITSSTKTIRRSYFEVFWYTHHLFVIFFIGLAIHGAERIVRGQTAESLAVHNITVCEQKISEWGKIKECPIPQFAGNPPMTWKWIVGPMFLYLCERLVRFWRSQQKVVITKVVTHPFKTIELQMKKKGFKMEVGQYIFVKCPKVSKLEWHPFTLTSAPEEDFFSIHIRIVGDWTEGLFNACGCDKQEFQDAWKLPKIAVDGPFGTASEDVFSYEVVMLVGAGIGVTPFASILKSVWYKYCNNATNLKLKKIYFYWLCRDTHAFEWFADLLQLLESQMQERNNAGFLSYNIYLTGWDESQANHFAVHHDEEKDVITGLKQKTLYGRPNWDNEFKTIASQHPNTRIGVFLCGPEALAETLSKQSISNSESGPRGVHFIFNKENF
EXPERIMENT_NOTES: NOX2-dependent H2O2 signal modulators, primary screen, NOX inhibitor project, cell-based, HEK293-NOX2, PMA-stimulated, Amplex Red fluorescence (AID 1159); also: test concentration not given here
TEST_CONDITIONS: 45 min, higher = more signal, called active from +8 up or from −8 down

{"SMILES_STR": "O=C1[C@H]2[C@H]3[C@H](O)[C@H](O)CC(=NOCc4ccccc4)[C@H]3CC[C@H]2C(=O)N1c1cccc(Oc2ccccc2)c1", "z-score": -1.86}
{"SMILES_STR": "COC(=O)[C@H](C)NC(=O)[C@@H](C)CO", "z-score": -0.371}
{"SMILES_STR": "COC(=O)CC=C[C@H](C)[C@@H](OCc1ccccc1Br)C(C)C", "z-score": 1.04}
{"SMILES_STR": "O=C1[C@H]2[C@H]3[C@H](O)[C@H](O)CC(=NO[C@@H]4O[C@H](CO)[C@@H](O)[C@H](O)[C@H]4O)[C@@H]3CC[C@H]2C(=O)N1Cc1ccc2c(c1)OCO2", "z-score": -0.486}
